B1: HDV Ribozyme (parent)
chain: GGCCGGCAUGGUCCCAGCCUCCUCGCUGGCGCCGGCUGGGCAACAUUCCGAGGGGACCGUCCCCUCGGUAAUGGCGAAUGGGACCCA

# Variants of: B1
# protocol details: self-cleavage, relative activity (ratio to wild type); higher = more cleavage; co-transcriptional
So basically, the class depends on measured self-cleavage, and the ranges are lower bin (below 0.1), middle bin (0.1 to below 0.4), upper bin (0.4 or more)

                            residue_sequence       class
 0  GGCCGGCAUAGUCCCAGCCUCCUCGCUGGUGCCGGCUGGGCAACAUUCCGAGGGGACCGUCCCCUCGGUAAUGGCGAAUGGGACCCA [G10A C30U]  middle bin
 1  GGCCGGCAGGGUCCCAGCCUCCUCGCUGGCGCCGGCUGGGCAACAUUCCGAGGGGACCGUCGCCUCGGUAAUGGCGAAUGGGACCCA [U9G C62G]   upper bin
 2  GGCCGGCAUGGUCCCAGCCUCCUCGCUGGCGCCGGCUGGGCAACCUUCCGAGGGGACCGUCCCCUCGGUAAUGGCGAAUGGGAGCCA [A45C C84G]  middle bin
 3  GGCCGGCAUGGUCACAGCCUCCUCGCUGGCGCGGGCUGGGCAACAUUCCGAGGGGACCGUCCCCUCGGUAAUGGCGAAUGGGACCCA [C14A C33G]  middle bin
 4  GGCCGGCAUGGUCCCAGCCCCCUCGCUGGCGCCGGCUGGGCAACAUUCCGAGGGGACCCUCCCCUCGGUAAUGGCGAAUGGGACCCA [U20C G59C]   lower bin
 5  GGCCGGCAUGGUCCCUGCUUCCUCGCUGGCGCCGGCUGGGCAACAUUCCGAGGGGACCGUCCCCUCGGUAAUGGCGAAUGGGACCCA [A16U C19U]  middle bin
 6  GGCCGGCAUGGUCCCAGCCUCCUCGCUGGCGCCGGCUGGGAAAUAUUCCGAGGGGACCGUCCCCUCGGUAAUGGCGAAUGGGACCCA [C41A C44U]   upper bin
 7  GGCCGGCAUGGUCCCAGCCUCCUCGCUGGCGCCGGCUGGGCAACAUUCCGAGGGGACCGUCCCCUCGGUAAUGGCGAAUGGUCCCCA [G82U A83C]  middle bin
 8  GGCCGGCAUGGUCACAGCCUCCUCGCUGGCGCCGGCUGGGCAACAUUCCGAGGCGACCGUCCCCUCGGUAAUGGCGAAUGGGACCCA [C14A G54C]   upper bin
 9  GGCCGGUAUGGUCCCAACCUCCUCGCUGGCGCCGGCUGGGCAACAUUCCGAGGGGACCGUCCCCUCGGUAAUGGCGAAUGGGACCCA [C7U G17A]  middle bin
10  GGCCGGCAUGGUCCUAGCCGCCUCGCUGGCGCCGGCUGGGCAACAUUCCGAGGGGACCGUCCCCUCGGUAAUGGCGAAUGGGACCCA [C15U U20G]  middle bin
11  GGCCGGCAUGGUCCCAGCCUCCUCGCGGGCGCCGGCUGGGCAACCUUCCGAGGGGACCGUCCCCUCGGUAAUGGCGAAUGGGACCCA [U27G A45C]  middle bin
12  GGCCGGCAUGGUCCCAGCCUCCUCGCUGGCGCCGGCUGGGCAACAUUCCGAUGGGACCGUCCCCUCGGUAAUGGCGAAUGGGAACCA [G52U C84A]   upper bin
13  GGCCGGCAAGGUCCCAGCCUCCUCGCUGGCGCCGGCUGGGCAACAUUCCGAGGGGACCGUCCCCUCGGUAAUGGCGAAUGUGACCCA [U9A G81U]  middle bin
14  GGCCGGCAUGGUCCCAGCCACCUCGCUGGCGCCGGCUGGGCAACAUUCCGAGGGGACCAUCCCCUCGGUAAUGGCGAAUGGGACCCA [U20A G59A]   lower bin
15  GGCCGGCAUGGUCCCAGCCGCCUCGCUGGCGCCGGCUGGGCACCAUUCCGAGGGGACCGUCCCCUCGGUAAUGGCGAAUGGGACCCA [U20G A43C]  middle bin
16  GGCCGGCAUGCUCCCAGCCUCCUCGCUGGCGCCGGCUGGGGAACAUUCCGAGGGGACCGUCCCCUCGGUAAUGGCGAAUGGGACCCA [G11C C41G]   upper bin
17  GGCCGGCAUGGUCCCAGCCUCCUCGCUGGCGCGGGCUGGGCAACAUUCCGAGGGGACCGUCCCCUCGGUAAUGGCGAAUGGCACCCA [C33G G82C]   lower bin
18  GGCCGGCACGGUCCCAGCCUCCUCGCCGGCGCCGGCUGGGCAACAUUCCGAGGGGACCGUCCCCUCGGUAAUGGCGAAUGGGACCCA [U9C U27C]   upper bin
19  GGCCGGCAUGGUCCCAGCGUCCUCGCUGGCGUCGGCUGGGCAACAUUCCGAGGGGACCGUCCCCUCGGUAAUGGCGAAUGGGACCCA [C19G C32U]   lower bin
20  GGAGGGCAUGGUCCCAGCCUCCUCGCUGGCGCCGGCUGGGCAACAUUCCGAGGGGACCGUCCCCUCGGUAAUGGCGAAUGGGACCCA [C3A C4G]   lower bin
21  GGCCGGCAUGGUCCCGGCCUCCUCGCUGGCGCCGGCUGGGCAACAUUCCGAGGGGACCGUCCCCUCGGUAAUGGGGAAUGGGACCCA [A16G C75G]  middle bin
22  GGCCAGCAUGGUCCCAGCCUCCUCGCUGGCGCCGGCUGGGCAACAUUUCGAGGGGACCGUCCCCUCGGUAAUGGCGAAUGGGACCCA [G5A C48U]   lower bin
23  GGCCGGCAUGGUCCCGGCCUCCUCGCUGGCGCCGGCUGGGCAACAUUCCGAGGGGACCGUCCCCUCGAUAAUGGCGAAUGGGACCCA [A16G G68A]   upper bin
24  GGCCUGCAUGGUCCCAGCCUCCUCGCUGGCGCCGGCUGUGCAACAUUCCGAGGGGACCGUCCCCUCGGUAAUGGCGAAUGGGACCCA [G5U G39U]  middle bin
25  GGCCGGCAAGGUCCCAGCCUCCUCGCUGGCGCCGGCUGGGCAACAUUUCGAGGGGACCGUCCCCUCGGUAAUGGCGAAUGGGACCCA [U9A C48U]   upper bin
26  GGCCGGCAUUGUCCCAGCCUACUCGCUGGCGCCGGCUGGGCAACAUUCCGAGGGGACCGUCCCCUCGGUAAUGGCGAAUGGGACCCA [G10U C21A]   lower bin
27  GGCCGGCAUGGUCCCAGCCUCCUCCCUGGCGGCGGCUGGGCAACAUUCCGAGGGGACCGUCCCCUCGGUAAUGGCGAAUGGGACCCA [G25C C32G]  middle bin
28  GGCCGGCAUGGUCCCAGCCUCCUCGCUGGCGCCGGCUCGGCAACAUUCCGAGGGGACCGUCCCCUCGGUAAUGGCGAAUGGGACCCG [G38C A87G]  middle bin
29  GGCCGGCAUGGUCCCAGCCUCCUCGCUGGCGCCGCCUGGGCAACAUUCCGAGGGGACCGUCCCCUCGGUAAUGGUGAAUGGGACCCA [G35C C75U]   lower bin
30  GGCCGGCAUGGUCCCAGCCUCCUCGCUGGCGCCUGCUGGGCAACAUUCCGAGGGGACCGUCCCCUCGGUAAUGGCGAAUGGUACCCA [G34U G82U]   lower bin
31  GGCCGGCAUGGUCCCAGCCUCCUCGUUGGCGCCGGCUGGGCAACAUUCCGAGGGGACCGUCCCCUCGGUAAUGGCGAGUGGGACCCA [C26U A78G]   upper bin
32  GGCCGGCAUGGUCCCAGCCUCCUCGCUGGCGCCGGCUGGGCAACAUUCCGAGGGGACCGGCCCCUCGGUAAUGGCGAAUGGCACCCA [U60G G82C]  middle bin
33  GGCCGGCACGGUCCCAGCCUCCUCGCUGGCGCCGGCUGGGCAACGUUCCGAGGGGACCGUCCCCUCGGUAAUGGCGAAUGGGACCCA [U9C A45G]   upper bin
34  GGCCGGCAUGAUCCCAGCCUCCUCGCUGGCGCCGGCUGGGCAACAUUCCGACGGGACCGUCCCCUCGGUAAUGGCGAAUGGGACCCA [G11A G52C]   upper bin
35  GGCCGGCAUGGUCCCAGCCUCCUCGCUGGCGCCGUCUGGGCAACAUUCCGAGGGGACAGUCCCCUCGGUAAUGGCGAAUGGGACCCA [G35U C58A]   upper bin
